Each recorded value in this set is attributed to patent US6410566B1.

- systemName: binding of human MCP-1 to THP-1 cells (Homo sapiens, UniProt P41597)
- Construct: endogenous in cells; host or cells: THP-1 (human monocytic leukemia cell line), whole cells
- procedureText: Inhibition of binding of [125I]-labeled baculovirus expressed human MCP-1 to THP-1 cells (Method 1)
- measurementContext: Method 1, at 100 μM
quantity: inhibition at 100 µM

Noted for O=C(CNC(=O)c1ccccc1)NCC1CCN(Cc2ccc(Cl)cc2)CC1 [Compound No. 458] : its inhibition at 100 µM reads > 80%

Measured inhibition at 100 µM, Cc1cccc(C(=O)NCC(=O)NC2CCCN(Cc3ccc(Cl)cc3)C2)c1 (stereo not drawn) [Compound No. 355] : > 80%

The reported inhibition at 100 µM of the compound O=C(CNC(=O)c1ccccc1)NC1CCN(Cc2ccc(Cl)cc2)C1 (stereo not drawn) [compound 1] was 50 to 80%

Notebook: O=C(CNC(=O)c1cc(C(F)(F)F)cc(C(F)(F)F)c1)N[C@H]1CCN(Cc2ccc(Cl)cc2)C1 [compound 5] , inhibition at 100 µM read as > 80%

Sample O=C(CNC(=O)Nc1ccc(C(F)(F)F)cc1)NCC1CCN(Cc2ccc(Cl)cc2)CC1 [Compound No. 852] ; inhibition at 100 µM observed: > 80%

The compound listed as CC(C)c1ccc(S(=O)(=O)NCC(=O)NCC2CCN(Cc3ccc(Cl)cc3)CC2)cc1 [Compound No. 869] has a reported inhibition at 100 µM of 20 to 50%

* * *

Let's look at some compounds and their measured inhibition at 10 µM.
- systemName: binding of human MCP-1 to THP-1 cells (Homo sapiens, UniProt P41597)
- Construct: endogenous in cells; host or cells: THP-1 (human monocytic leukemia cell line), whole cells
- procedureText: Inhibition of binding of [125I]-labeled baculovirus expressed human MCP-1 to THP-1 cells (Method 1)
- measurementContext: Method 1, at 10 μM
- Protocol: Measurement of Inhibition of MCP-1 Binding to THP-1 Cells 1. […] The radioactivity retained by the cells on the filter were measured using TopCount (Packard Instrument Co.). To calculate the ability of test compound to inhibit binding of human MCP-1 to THP-1 cells, non-specific binding determined by adding 100 ng of unlabeled human MCP-1 in place of the test compound was subtracted, while the counts with no test compound added was taken as 100%. […]

What the record says about O=C(CNC(=O)c1cccc(C(F)(F)F)c1)NCC1CCN(Cc2ccc(NC(=O)c3ccccc3)cc2)CC1 : inhibition at 10 µM is 20 to 50%

New cases:
Data point: O=C(CNC(=O)c1ccccc1)NCC1CCCN(Cc2ccc(Cl)cc2)C1 (stereo not shown) ; inhibition at 10 µM = 50 to 80%

Record summary for Nc1ccc(CN2CCC(CNC(=O)CNC(=O)c3cccc(C(F)(F)F)c3)CC2)cc1 : reported inhibition at 10 µM = 20 to 50%

Summary for this compound, CN(CC1CCN(Cc2ccc(Cl)cc2)CC1)C(=O)CNC(=O)c1cccc(C(F)(F)F)c1 : inhibition at 10 µM is 50 to 80%

* * *

- systemName: binding of human MCP-1 to THP-1 cells (Homo sapiens, UniProt P41597)
- Construct: endogenous in cells; host or cells: THP-1 (human monocytic leukemia cell line), whole cells
- Sequence (P41597 1-360 isoform P41597-2): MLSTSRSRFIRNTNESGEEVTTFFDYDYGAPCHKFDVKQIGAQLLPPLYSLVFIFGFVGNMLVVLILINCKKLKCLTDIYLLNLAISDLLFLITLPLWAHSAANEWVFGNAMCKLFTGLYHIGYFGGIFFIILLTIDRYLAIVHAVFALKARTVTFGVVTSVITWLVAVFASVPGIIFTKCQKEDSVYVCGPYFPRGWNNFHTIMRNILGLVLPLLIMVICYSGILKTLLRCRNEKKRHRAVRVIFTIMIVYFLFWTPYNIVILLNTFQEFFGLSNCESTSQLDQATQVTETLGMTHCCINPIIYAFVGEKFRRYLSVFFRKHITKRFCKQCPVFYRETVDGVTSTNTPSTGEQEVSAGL
- procedureText: Inhibition of binding of [125I]-labeled baculovirus expressed human MCP-1 to THP-1 cells (Method 2)
- measurementContext: Method 2, at 1 μM
Listing of recorded inhibition at 1 µM by entry.

Noted for CCOc1ccc(CN2CCC(CNC(=O)CNC(=O)c3cc(F)c(F)cc3N)CC2)cc1OCC : its inhibition at 1 µM reads 20 to 50%

CC(C)c1ccc(CN2CCC(CNC(=O)CNC(=O)c3cc(OC(F)(F)F)ccc3N)CC2)cc1 yielded inhibition at 1 µM of 50 to 80%

get_value(item= C=Cc1ccc(CN2CC[C@@H](NC(=O)CNC(=O)c3cc(C(F)(F)F)ccc3N)C2)cc1 , readout=inhibition at 1 µM) returns > 80%

New cases:
The compound identified as O=C(CNC(=O)c1cccc(C(F)(F)F)c1)NCC1CCN(Cc2ccc(Cl)cc2)C1 (stereo not drawn) registered its inhibition at 1 µM at 20 to 50%

Value of measured inhibition at 1 µM for the entry Nc1ccc(OC(F)(F)F)cc1C(=O)NCC(=O)N[C@@H]1CCN(Cc2ccc(Cl)cc2Cl)C1 : 50 to 80%

Memo: COc1ccc(CN2CC[C@@H](NC(=O)CNC(=O)c3cc(OC(F)(F)F)ccc3N)C2)cc1O , reported inhibition at 1 µM: > 80%

Kindly note the recorded inhibition at 1 µM for Nc1cc(Cl)ccc1CN1CCC(CNC(=O)CNC(=O)c2cc(C(F)(F)F)ccc2N)CC1 , which is > 80%

Per the record, Nc1cc(Cl)ccc1CN1CC[C@@H](NC(=O)CNC(=O)c2cc(OC(F)(F)F)ccc2N)C1 has inhibition at 1 µM of > 80%

Given item Nc1cc2c(cc1CN1CC[C@@H](NC(=O)CNC(=O)c3cc(C(F)(F)F)ccc3N)C1)OCO2 , the value recorded as its inhibition at 1 µM is > 80%

# inhibition at 1 µM of CS(=O)(=O)Nc1ccc(Br)cc1C(=O)NCC(=O)NCC1CCN(Cc2ccc(Cl)cc2)CC1 = 20 to 50%

// inhibition at 1 µM lookup, compound = CCOc1ccc(CN2CCC(CNC(=O)CNC(=O)c3cc(Cl)ccc3N)CC2)cc1 , result: 20 to 50%

Kindly note the recorded inhibition at 1 µM for CS(=O)(=O)N(c1ccc(Br)cc1C(=O)NCC(=O)NCC1CCN(Cc2ccc(Cl)cc2)CC1)S(C)(=O)=O , which is 20 to 50%

Summary for this compound, Cc1ccc(CN2CCC(CNC(=O)CNC(=O)c3cc(F)c(F)cc3N)CC2)cc1N : inhibition at 1 µM is > 80%

Query Nc1cc(F)c(F)cc1C(=O)NCC(=O)NCC1CCN(Cc2ccc(Cl)cc2)C1 (stereo not drawn) yields inhibition at 1 µM of 50 to 80%

The reported value for COc1ccc(CN2CCC(CNC(=O)CNC(=O)c3cc(F)c(F)cc3N)CC2)cc1N in terms of inhibition at 1 µM is > 80%

Lookup result for Nc1ccc(OC(F)(F)F)cc1C(=O)NCC(=O)NCC1CCN(Cc2ccc(Br)cc2)CC1 ; measured inhibition at 1 µM: 50 to 80%

Lab note: CN(C)c1cc(CN2CC[C@@H](NC(=O)CNC(=O)c3cc(C(F)(F)F)ccc3N)C2)ccc1Cl gave inhibition at 1 µM of > 80%

get_value(item= Cc1ccc(C(=O)NCC(=O)N[C@@H]2CCN(Cc3ccc(Cl)cc3)C2)cc1Br , readout=inhibition at 1 µM) returns 20 to 50%

Entry Cc1noc(C)c1CN1CC[C@@H](NC(=O)CNC(=O)c2cc(F)cc(C(F)(F)F)c2)C1 ; inhibition at 1 µM = > 80%

inhibition at 1 µM for Nc1cc(CN2CC[C@@H](NC(=O)CNC(=O)c3cc(C(F)(F)F)ccc3N)C2)ccc1O is > 80%

* * *

# inhibition at 10 µM values compiled below
- systemName: binding of human MIP-1α to THP-1 cells (Homo sapiens)
- Construct: endogenous in cells; host or cells: THP-1 (human monocytic leukemia cell line), whole cells
- Sequence (P32246 whole entry): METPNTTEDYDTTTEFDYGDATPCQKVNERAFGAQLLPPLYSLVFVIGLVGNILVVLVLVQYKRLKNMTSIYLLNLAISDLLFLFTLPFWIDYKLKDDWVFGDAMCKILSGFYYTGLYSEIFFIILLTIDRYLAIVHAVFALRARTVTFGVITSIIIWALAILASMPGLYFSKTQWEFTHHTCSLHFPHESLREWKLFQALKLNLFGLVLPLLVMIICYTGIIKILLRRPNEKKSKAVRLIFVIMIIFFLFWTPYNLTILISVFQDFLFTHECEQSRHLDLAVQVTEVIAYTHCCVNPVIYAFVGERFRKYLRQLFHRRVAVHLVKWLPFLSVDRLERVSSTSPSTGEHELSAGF
- procedureText: Inhibition of MIP-1α binding to THP-1 cells
- measurementContext: at 10 μM

Worked cases, inhibition at 10 µM given:
# compound O=C(NCC(=O)N(CC1CCN(Cc2ccc(Cl)cc2)CC1)CC(c1ccccc1)c1ccccc1)c1ccccc1 ; its inhibition at 10 µM = 20 to 50%

Input O=C(CNC(=O)c1cccc(C(F)(F)F)c1)NCC1CCN(Cc2ccc(Cl)cc2)CC1 . Output inhibition at 10 µM: > 80%

The compound O=C(CNC(=O)c1ccccc1)NC1CCN(Cc2ccc(Cl)cc2)C1 (centres unmarked) showed inhibition at 10 µM equal to 50 to 80%

***
Reported inhibition at 10 µM ( CN(CC1CCN(Cc2ccc(Cl)cc2)CC1)C(=O)CNC(=O)c1cccc(C(F)(F)F)c1 ) = 50 to 80%

The value of inhibition at 10 µM measured for the compound Nc1ccc(Br)cc1C(=O)NCC(=O)NCC1CCN(Cc2ccc(Cl)cc2)CC1 turned out to be 50 to 80%

For this compound ( CC(C)[C@H](NC(=O)c1cccc(C#N)c1)C(=O)NCC1CCN(Cc2ccc(Cl)cc2)CC1 ), measured inhibition at 10 µM is 50 to 80%

Record summary for O=C(CNC(=O)c1ccccc1)NCC1CCN(Cc2ccc(Cl)cc2)CC1 : reported inhibition at 10 µM = 50 to 80%

get_value(item= CC(C)c1ccc(S(=O)(=O)NCC(=O)NCC2CCN(Cc3ccc(Cl)cc3)CC2)cc1 , readout=inhibition at 10 µM) returns > 80%
